# %Inh per entry
System: JAK1(JH2domain-pseudokinase);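 further: KINOMEscan kinase panel screen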
Conditions: concentration: 1 μM,replicates: in singlicate; n = 1
Please respond with the number in % and leave the unit unwritten.

molecule	measurement-units	quantitative-result
C=CC(=O)Nc1cc2c(Nc3ccc(F)c(Cl)c3)ncnc2cc1OCCCN1CCOCC1 [GW781483]	%	0
CCN(CC)CCOc1ccc(Nc2ncc3cc(-c4c(Cl)cccc4Cl)c(=O)n(C)c3n2)cc1 [SB-601273]	%	14
O=C(NCCCN1CCOC1=O)c1cnc(NCc2cc(Cl)ccc2Cl)nc1NC1CCCC1	%	54

Moving on to another molecule below.
Sample Cc1occc1-c1nc(N)c(OC[C@@H](N)Cc2c[nH]c3ccccc23)cc1-c1cc2c(C)n[nH]c2cn1 [GSK1660450] — what was its %Inh? 0
